Field: solubility at 24 h. Provide a value for each of the molecules that follow.
# Procedure summary: Kinetic Solubility Analysis (CLND)
# Type: physicochemical
# Assay context: 0.1N HCl, 26 °C, pH 1, simulated gastric fluid, kinetic from dmso stock; read-out: Solubility, HCl, pH 1.0, RT
Reply with just the number (in µM).

## Task Look up and state reported solubility at 24 h for COC(=O)N[C@H](C(=O)N[C@@H](Cc1ccc(C#Cc2cnc(N3CC4CCC(C3)N4C3COC3)nc2)cc1)[C@@H](O)CN(Cc1c(F)cc(-c2ccn(C(F)F)n2)cc1F)NC(=O)[C@@H](NC(=O)OC)C(C)(C)C(F)(F)F)C(C)(C)C(F)(F)F [Compound D, reference compound]
## Result 19.5

## Task Quote solubility at 24 h reported for COC(=O)N[C@H](C(=O)N[C@@H](Cc1ccc(C#Cc2cnc(N3CC4CCC(C3)N4C3COC3)nc2)cc1)[C@H](CN(Cc1c(F)cc(-c2ccn(C(F)F)n2)cc1F)NC(=O)[C@@H](NC(=O)OC)C(C)(C)C(F)(F)F)OP(=O)(O)O)C(C)(C)C(F)(F)F please.
## Result 13.1

## Task Indicate the recorded solubility at 24 h value for this molecule: COC(=O)N[C@H](C(=O)N[C@@H](Cc1ccc(C#Cc2cnc(N3CC4CCC(C3)N4C3COC3)nc2)cc1)[C@H](CN(Cc1c(F)cc(-c2ccn(C(F)F)n2)cc1F)NC(=O)[C@@H](NC(=O)OC)C(C)(C)C(F)(F)F)OC(=O)[C@@H](N)CCCCN)C(C)(C)C(F)(F)F
## Result 86.8

## Task Supply measured solubility at 24 h of COC(=O)N[C@H](C(=O)N[C@@H](Cc1ccc(C#Cc2cnc(N3CC4CCC(C3)N4C3COC3)nc2)cc1)[C@H](CN(Cc1c(F)cc(-c2ccn(C(F)F)n2)cc1F)NC(=O)[C@@H](NC(=O)OC)C(C)(C)C(F)(F)F)OC(=O)c1ccccn1)C(C)(C)C(F)(F)F in your reply.
## Result 38.5

## Task Consider the molecule COC(=O)N[C@H](C(=O)N[C@@H](Cc1ccc(C#Cc2cnc(N3CC4CCC(C3)N4C3COC3)nc2)cc1)[C@H](CN(Cc1c(F)cc(-c2ccn(C(F)F)n2)cc1F)NC(=O)[C@@H](NC(=O)OC)C(C)(C)C(F)(F)F)OC=O)C(C)(C)C(F)(F)F . State its measured solubility at 24 h.
## Result 20

## Task Return the recorded solubility at 24 h value; entry: COC(=O)N[C@H](C(=O)N[C@@H](Cc1ccc(C#Cc2cnc(N3CC4CCC(C3)N4C3COC3)nc2)cc1)[C@H](CN(Cc1c(F)cc(-c2ccn(C(F)F)n2)cc1F)NC(=O)[C@@H](NC(=O)OC)C(C)(C)C(F)(F)F)OC(=O)CCCN1CCOCC1)C(C)(C)C(F)(F)F
## Result 81

## Task Give the measured solubility at 24 h for COC(=O)N[C@H](C(=O)N[C@@H](Cc1ccc(C#Cc2cnc(N3CC4CCC(C3)N4C3COC3)nc2)cc1)[C@H](CN(Cc1c(F)cc(-c2ccn(C(F)F)n2)cc1F)NC(=O)[C@@H](NC(=O)OC)C(C)(C)C(F)(F)F)OC(C)=O)C(C)(C)C(F)(F)F
## Result 25.2

* * *

# Procedure summary: Liver microsomal stability (human)
# Assay type: in vitro ADME
# Assay context: human liver microsomes 0.5 mg/mL, 1 μM compound, NADPH-regenerating system, 37° C.
What Human Pred Cl. (L/H/kg) was measured for each of the following?
Express your answer in L/H/kg, writing the number without its unit.

## Task Tell me Human Pred Cl. (L/H/kg) reported for COC(=O)N[C@H](C(=O)N[C@@H](Cc1ccc(C#Cc2cnc(N3CC4CCC(C3)N4C3COC3)nc2)cc1)[C@H](CN(Cc1c(F)cc(-c2ccn(C(F)F)n2)cc1F)NC(=O)[C@@H](NC(=O)OC)C(C)(C)C(F)(F)F)OP(=O)(O)O)C(C)(C)C(F)(F)F
## Result 0.47

## Task Tell me measured Human Pred Cl. (L/H/kg) for COC(=O)N[C@H](C(=O)N[C@@H](Cc1ccc(C#Cc2cnc(N3CC4CCC(C3)N4C3COC3)nc2)cc1)[C@H](CN(Cc1c(F)cc(-c2ccn(C(F)F)n2)cc1F)NC(=O)[C@@H](NC(=O)OC)C(C)(C)C(F)(F)F)OC(=O)c1ccccn1)C(C)(C)C(F)(F)F please.
## Result 0.29

* * *

# Test system: HIV-1 (IIIB) in MT-4 cells
# Procedure summary: MT-4 HIV Assay
# Type: cell-based
# Assay context: Human immunodeficiency virus 1, MT4, 120 h; HIV-1 (IIIB) replication in MT-4 cells, 5 days incubation, Cell Titer Glo; read-out: EC50
# Procedure: Compounds were tested in a high-throughput 384-well assay format for their ability to inhibit the replication of HIV-1 (IIIB) in MT-4 cells. […] After 5 days incubation in a humidified and temperature controlled incubator (37° C.), Cell Titer Glo (Promega) was added to the assay plates to quantify the amount of luciferase. […]
Give EC50 for every item shown.
Give just the numeric value; nM need not be written.

## Task Tell me its EC50 given COC(=O)N[C@H](C(=O)N[C@@H](Cc1ccc(C#Cc2cnc(N3CC4CCC(C3)N4C3COC3)nc2)cc1)[C@H](CN(Cc1c(F)cc(-c2ccn(C(F)F)n2)cc1F)NC(=O)[C@@H](NC(=O)OC)C(C)(C)C(F)(F)F)OC(=O)c1cccnc1)C(C)(C)C(F)(F)F as the entry.
## Result 1140

## Task # return recorded EC50 for entry COC(=O)N[C@H](C(=O)N[C@@H](Cc1ccc(C#Cc2cnc(N3CC4CCC(C3)N4C3COC3)nc2)cc1)[C@H](CN(Cc1c(F)cc(-c2ccn(C(F)F)n2)cc1F)NC(=O)[C@@H](NC(=O)OC)C(C)(C)C(F)(F)F)OC(=O)[C@@H](N)CCCCN)C(C)(C)C(F)(F)F
## Result 20.6

## Task For the compound COC(=O)N[C@H](C(=O)N[C@@H](Cc1ccc(C#Cc2cnc(N3CC4CCC(C3)N4C3COC3)nc2)cc1)[C@H](CN(Cc1c(F)cc(-c2ccn(C(F)F)n2)cc1F)NC(=O)[C@@H](NC(=O)OC)C(C)(C)C(F)(F)F)OC(=O)[C@@H](N)C(C)C)C(C)(C)C(F)(F)F , report EC50.
## Result 102

## Task Supply measured EC50 of COC(=O)N[C@H](C(=O)N[C@@H](Cc1ccc(C#Cc2cnc(N3CC4CCC(C3)N4C3COC3)nc2)cc1)[C@H](CN(Cc1c(F)cc(-c2ccn(C(F)F)n2)cc1F)NC(=O)[C@@H](NC(=O)OC)C(C)(C)C(F)(F)F)OC(=O)CCCN1CCOCC1)C(C)(C)C(F)(F)F in your reply.
## Result 56.6

* * *

# Procedure summary: in vivo
# Assay context: beagle, dog, po
Experimental readout: bioavailability (%)
The answer is to be given in %; state only the numeric part.

## Task Please report the measured bioavailability for COC(=O)N[C@H](C(=O)N[C@@H](Cc1ccc(C#Cc2cnc(N3CC4CCC(C3)N4C3COC3)nc2)cc1)[C@@H](O)CN(Cc1c(F)cc(-c2ccn(C(F)F)n2)cc1F)NC(=O)[C@@H](NC(=O)OC)C(C)(C)C(F)(F)F)C(C)(C)C(F)(F)F [Compound D, reference compound]
## Result 2.6

* * *

# Procedure summary: Kinetic Solubility Analysis (CLND)
# Format: physicochemical
# Assay context: 0.1N HCl, 26 °C, pH 1, simulated gastric fluid, kinetic from dmso stock; read-out: Solubility, HCl, pH 1.0, RT
Experimental readout: solubility at 24 h

## Task Determine from records and report solubility at 24 h for COC(=O)N[C@H](C(=O)N[C@@H](Cc1ccc(C#Cc2cnc(N3CC4CCC(C3)N4C3COC3)nc2)cc1)[C@H](CN(Cc1c(F)cc(-c2ccn(C(F)F)n2)cc1F)NC(=O)[C@@H](NC(=O)OC)C(C)(C)C(F)(F)F)OC(=O)[C@@H](N)C(C)C)C(C)(C)C(F)(F)F
## Result 90 µM

## Task Provide measured solubility at 24 h value, entry: COC(=O)N[C@H](C(=O)N[C@@H](Cc1ccc(C#Cc2cnc(N3CC4CCC(C3)N4C3COC3)nc2)cc1)[C@H](CN(Cc1c(F)cc(-c2ccn(C(F)F)n2)cc1F)NC(=O)[C@@H](NC(=O)OC)C(C)(C)C(F)(F)F)OC(=O)c1cccnc1)C(C)(C)C(F)(F)F
## Result 89.2 µM

## Task Supply recorded solubility at 24 h for COC(=O)N[C@H](C(=O)N[C@@H](Cc1ccc(C#Cc2cnc(N3CC4CCC(C3)N4C3COC3)nc2)cc1)[C@H](CN(Cc1c(F)cc(-c2ccn(C(F)F)n2)cc1F)NC(=O)[C@@H](NC(=O)OC)C(C)(C)C(F)(F)F)OC(=O)CN(C)C)C(C)(C)C(F)(F)F here.
## Result 79.3 µM

## Task In one line, give reported solubility at 24 h of the entry COC(=O)N[C@H](C(=O)N[C@@H](Cc1ccc(C#Cc2cnc(N3CC4CCC(C3)N4C3COC3)nc2)cc1)[C@H](CN(Cc1c(F)cc(-c2ccn(C(F)F)n2)cc1F)NC(=O)[C@@H](NC(=O)OC)C(C)(C)C(F)(F)F)OC(=O)[C@H](C(C)C)N(C)C)C(C)(C)C(F)(F)F .
## Result 99.2 µM

## Task Look up and report measured solubility at 24 h for this entry: COC(=O)N[C@H](C(=O)N[C@@H](Cc1ccc(C#Cc2ccc(N3CC4CCC(C3)N4C3COC3)nc2)cc1)[C@H](CN(Cc1c(F)cc(-c2ccn(C(F)F)n2)cc1F)NC(=O)[C@@H](NC(=O)OC)C(C)(C)C(F)(F)F)OC(=O)OCOP(=O)(O)O)C(C)(C)C(F)(F)F
## Result 67.4 µM
